In this section, each of the compounds is paired with its reported % β-catenin induction.
- Tested on: d-U937 cells
- TEST DESCRIPTION: Accumulation of β catenin in d-U937 cells (assay m)
- Format: cell-based, human
- CONDITION NOTES: test compound 1 μg/mL; percentage relative to Reference Compound at 1 μg/mL
EXPERIMENTAL ENDPOINT: % β-catenin induction

[[record]]
smiles_notation = "COCCOCCOCCOc1cc(Nc2nccc(Oc3ccc(NC(=O)Nc4cc(C(C)(C)C)cc(C(=O)NCCN5CCOCC5)c4OC)c4ccccc34)n2)cc(OC)c1"
target = "d-U937 cells"
result = "2.5%"

[[record]]
smiles_notation = "COc1cc(Nc2cc(Oc3ccc(NC(=O)Nc4cc(C(C)(C)C)cc(CC(N)=O)c4OC)c4ccccc34)ccn2)cc(OC)c1"
target = "d-U937 cells"
result = "6.5%"

[[record]]
smiles_notation = "COCCOCCOCCOc1cc(Nc2cc(Oc3ccc(NC(=O)Nc4cc(C(C)(C)C)cc(CP(C)(C)=O)c4OC)c4ccccc34)ccn2)cc(OC)c1"
target = "d-U937 cells"
result = "6.5%"

[[record]]
smiles_notation = "COc1c(NC(=O)Nc2ccc(Oc3ccnc(Nc4ccccc4)c3)c3ccccc23)cc(C(C)(C)C)cc1S(C)(=O)=O"
target = "d-U937 cells"
result = "−3.0%"

[[record]]
smiles_notation = "COc1cncc(Nc2cc(Oc3ccc(NC(=O)Nc4cc(C(C)(C)C)cc(CC(N)=O)c4OC)c4ccccc34)ccn2)c1"
target = "d-U937 cells"
result = "2.0%"

[[record]]
smiles_notation = "COc1c(NC(=O)Nc2ccc(Oc3ccnc(NCc4ccccc4)n3)c3ccccc23)cc(C(C)(C)C)cc1P(C)(C)=O"
target = "d-U937 cells"
result = "4.5%"


All figures here come from patent US9890185B2.
